Values were extracted from patent US20260355212A1.

# measured-target: HCoV-229E Mpro (Human coronavirus 229E)
# Sequence (P0C6X1 2966-3267 limits assumed): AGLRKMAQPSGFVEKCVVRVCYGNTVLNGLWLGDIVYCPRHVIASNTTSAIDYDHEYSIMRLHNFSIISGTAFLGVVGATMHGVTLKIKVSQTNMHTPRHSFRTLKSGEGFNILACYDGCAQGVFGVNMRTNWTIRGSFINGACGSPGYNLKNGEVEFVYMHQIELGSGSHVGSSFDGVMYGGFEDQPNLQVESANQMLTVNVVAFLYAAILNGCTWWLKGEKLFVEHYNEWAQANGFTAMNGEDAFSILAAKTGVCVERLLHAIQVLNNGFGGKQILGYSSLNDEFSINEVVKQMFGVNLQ
# test-name: HCoV-229E Mpro enzymatic inhibition assay (fluorescence)
# Format: biochemical
attribute-measured: pIC50
Bear in mind: pIC50 is minus log10 of a mol/L concentration; give just that figure.

Some entries whose results are on file:
[[record]]
compound = "NC(=O)C(=O)[C@H](C[C@@H]1CCNC1=O)NC(=O)[C@@H]1CC2(CC2)CN1C(=O)c1cc2ccccc2[nH]1 [Compound 35]"
attribute_measured = "pIC50"
obs_value = 7.43

[[record]]
compound = "C[C@@H](C(=O)N1C[C@H]2[C@@H]([C@H]1C(=O)N[C@H](C=O)C[C@@H]1CCNC1=O)C2(C)C)C1CCCCC1 [Compound 67]"
attribute_measured = "pIC50"
obs_value = 7.56

[[record]]
compound = "CC1(C)[C@@H]2[C@@H](C(=O)N[C@H](C=O)C[C@@H]3CCNC3=O)N(C(=O)c3cc4cc5c(cc4[nH]3)OCO5)C[C@@H]21 [Compound 27]"
attribute_measured = "pIC50"
obs_value = 7.26

[[record]]
compound = "Cn1c(C(=O)N2C[C@H]3[C@@H]([C@H]2C(=O)N[C@H](C=O)C[C@@H]2CCNC2=O)C3(C)C)cc2cc(Cl)ccc21 [Compound 90]"
attribute_measured = "pIC50"
obs_value = 7.22

[[record]]
compound = "O=C[C@H](C[C@@H]1CCNC1=O)NC(=O)[C@@H]1CC2(CCC2)CN1C(=O)C1(c2ccccc2)CC1 [Compound 84]"
attribute_measured = "pIC50"
obs_value = 7.32

[[record]]
compound = "CC1(C)[C@@H]2[C@@H](C(=O)N[C@H](C=O)C[C@@H]3CCNC3=O)N(C(=O)Cc3ccc4c(c3)CCCC4)C[C@@H]21 [Compound 40]"
attribute_measured = "pIC50"
obs_value = 7.40

[[record]]
compound = "CC1(C)[C@@H]2[C@@H](C(=O)N[C@H](C=O)C[C@@H]3CCNC3=O)N(C(=O)c3cc4occc4[nH]3)C[C@@H]21 [Compound 78]"
attribute_measured = "pIC50"
obs_value = 7.43

[[record]]
compound = "CC(C)(C(=O)N1C[C@H]2[C@@H]([C@H]1C(=O)N[C@H](C=O)C[C@@H]1CCNC1=O)C2(C)C)c1ccccc1 [Compound 48]"
attribute_measured = "pIC50"
obs_value = 7.06

[[record]]
compound = "CC1(C)[C@@H]2[C@@H](C(=O)N[C@H](C#N)C[C@@H]3CCNC3=O)N(C(=O)c3cc4c(F)ccc(Cl)c4[nH]3)C[C@@H]21 [Compound 128]"
attribute_measured = "pIC50"
obs_value = 5.91

[[record]]
compound = "Cc1cccc2cc(C(=O)N3C[C@H]4[C@@H]([C@H]3C(=O)N[C@H](C=O)C[C@@H]3CCNC3=O)C4(C)C)[nH]c12 [Compound 33]"
attribute_measured = "pIC50"
obs_value = 7.36


Query block: Look up pIC50: CO[C@@H]1C[C@@H](C(=O)N[C@H](C=O)C[C@@H]2CCNC2=O)N(C(=O)c2cc3ccccc3[nH]2)C1 [Compound 121]
Result block: 6.82

Query block: Look up pIC50: CC1(C)[C@@H]2[C@@H](C(=O)N[C@H](C=O)C[C@@H]3CCCNC3=O)N(C(=O)c3cc4ccccc4[nH]3)C[C@@H]21 [Compound 11]
Result block: 7.43

Query block: Look up pIC50: CC1(C)[C@@H]2[C@@H](C(=O)N[C@H](C=O)C[C@@H]3CCNC3=O)N(C(=O)c3cc4c(F)ccc(Cl)c4[nH]3)C[C@@H]21 [Compound 49]
Result block: 7.50

Query block: Look up pIC50: CC1(C)[C@@H]2[C@@H](C(=O)N[C@H](C=O)C[C@@H]3CCNC3=O)N(C(=O)C3(O)CCCCC3)C[C@@H]21 [Compound 94]
Result block: 7.16

Query block: Look up pIC50: O=C[C@H](C[C@@H]1CCNC1=O)NC(=O)[C@@H]1CC2(CC2)CN1C(=O)CC1CCCCC1 [Compound 126]
Result block: 7.25
